test system: HCT-116; test: NCI tumour cell line growth inhibition, 48 h
Calls of active or inactive are those of the source. Rule as the data show it: active = GI50 up to about 1.1 µM and inactive = higher.
Outcome field: choose from 1.0 = active, 0.0 = inactive

So what was the verdict on Cc1ccc(C(=O)Nc2ccccc2)cc1/N=N/N(C)C in this test?
0.0

So what was the verdict on [O-]/[N+](=C\c1ccccc1)[C@H](COCc1ccccc1)c1ccccc1 in this test?
0.0

So what was the verdict on O=C(NN1C(=O)CS(=O)(=O)C1c1cccc(F)c1)c1ccncc1 (stereo unspecified) in this test?
0.0

So what was the verdict on COC(=O)c1c(C)[n+]([O-])c2cc(Cl)c(Cl)cc2[n+]1[O-] in this test?
0.0

So what was the verdict on Clc1ccc2c(c1)-c1c3c(nn1-c1ccccc1)-c1ccccc1SC3O2 (stereo unspecified) in this test?
0.0

So what was the verdict on O=C(/C=C\c1cccc2ccccc12)c1ccc(Cl)cc1Cl in this test?
0.0

So what was the verdict on CSC(=S)N/N=C/c1nccc2ccccc12 in this test?
0.0

So what was the verdict on COc1c(C(=O)O)oc2c(OC)cccc12 in this test?
0.0

So what was the verdict on COC(=O)CC1C(C)(C)C(=O)C2CC3=C4CC(=O)OC(c5ccoc5)C4(C)CCC3C1(C)C2=O (stereo unspecified) in this test?
0.0

So what was the verdict on CC(=O)N1N=C(c2ccccc2Nc2ccccc2C2=NN(C(C)=O)C(c3ccccc3)O2)OC1c1ccccc1 (stereo unspecified) in this test?
0.0

So what was the verdict on CC(=O)ON(C(C)=O)c1ccc(-c2nc3ccccc3s2)cc1 in this test?
0.0

So what was the verdict on O=C(CC(=O)N(C(=O)c1ccccc1)c1ccc(Cl)cc1)N/N=C\c1cc(/N=N/c2ccccc2Cl)ccc1O in this test?
0.0

So what was the verdict on CC1CC[C@@]2(OC1)OC1C[C@H]3[C@@H]4CC=C5CC(OC6OC(CO)C(OC7OC(CO)C(O)C(OC8OCC(O)C(O)C8O)C7OC7OC(CO)C(O)C(O)C7O)C(O)C6O)CCC5(C)[C@H]4CCC3(C)C1[C@@H]2C (stereo partly specified) in this test?
0.0

So what was the verdict on O=c1n(CC2CO2)c2ccccc2n1CC1CS1 (stereo unspecified) in this test?
0.0

So what was the verdict on O=C(CCc1ccccc1)NS(=O)(=O)c1ccccc1 in this test?
0.0

So what was the verdict on [O-][S+](Nc1ccccc1)c1ccc(-c2ccccc2)cc1 (stereo unspecified) in this test?
0.0

So what was the verdict on NC(Cc1c[nH]c2ccccc12)P(=O)(O)O (stereo unspecified) in this test?
0.0

So what was the verdict on NC(CCP(=O)(O)O)C(=O)O (stereo unspecified) in this test?
0.0

So what was the verdict on Cc1[nH]c2ccccc2c1C1Cc2ccccc2N1C(=O)/C(Cl)=C/c1ccccc1 (stereo unspecified) in this test?
0.0

So what was the verdict on O=c1c2ccccc2oc2nc3n(c(=O)c12)CCCS3 in this test?
0.0

So what was the verdict on Cc1ccc2nc(Cl)c(/C=N/N3C(=O)/C(=C/c4ccc(N(C)C)cc4)N=C3c3ccccc3)cc2c1 in this test?
0.0

So what was the verdict on C#CCCCC(=O)N(C(=O)C[S+]([O-])CC)c1ccccc1 (stereo unspecified) in this test?
0.0

So what was the verdict on NC1CCC2(O)c3ccccc3C2C1 (stereo unspecified) in this test?
0.0

So what was the verdict on COc1ccc(N2C(=O)C3c4[nH]c5cc(Cl)ccc5c4C4CCC(C(C)(C)C)CC4C3C2=O)cc1 (stereo unspecified) in this test?
0.0

So what was the verdict on COc1cc2oc(=O)cc(C)c2cc1OC in this test?
0.0

So what was the verdict on Cc1cc(C)c2c(=O)n(CN3CCC(C#N)(c4ccccc4)CC3)sc2n1 in this test?
0.0

So what was the verdict on N#CC(/C(CCCC(=O)Nc1cccc([N+](=O)[O-])c1)=N\NC(=O)c1c(O)ccc2ccccc12)c1nc2ccccc2s1 (stereo unspecified) in this test?
0.0

So what was the verdict on CC1=NN2C(c3ccc(C)cc3)=CSC2=NC(C)(C)C1 in this test?
0.0

So what was the verdict on O=C(O)c1nc(-c2ccccc2)ncc1-c1nnnn1-c1ccccc1 in this test?
0.0

So what was the verdict on O=P1(NCCCl)OCCCN1CCCl (stereo unspecified) [IFOSFAMIDE] in this test?
0.0

So what was the verdict on CC[N+]1(C)CCC(O)(c2ccc(Cl)cc2)C(C(=O)c2ccc(Cl)cc2)C1 (stereo unspecified) in this test?
0.0

So what was the verdict on Oc1ccc(-c2nn3c(CCCCCCCCc4nnc5sc(-c6ccc(O)cc6)nn45)nnc3s2)cc1 in this test?
0.0

So what was the verdict on COc1cc(/C=C2\N=C(c3ccccc3)N(/N=C/c3cc4cc(C)ccc4nc3Cl)C2=O)cc(OC)c1OC in this test?
0.0

So what was the verdict on C[C@H](N)C(=O)N[C@@H]1[C@H]2C(=C(O)C[C@@H](O)[C@@H]2O)C(=O)O[C@]1(C)C(Cl)Cl in this test?
1.0

So what was the verdict on CCOC(=O)CN1C(=O)c2c(c(C)n(-c3ccccc3)c2C)C1=O in this test?
0.0

So what was the verdict on CCCCCC(=O)Nc1[nH]nnc1C#N in this test?
0.0
